target: Neu5Ac(a2-3)Gal(b1-4)[Fuc(a1-3)]GlcNAc(b1-3)Gal(b1-4)GlcNAc; experiment: glycan array binding signal (z-score within array); higher = stronger binding; settings: glycan notation: IUPAC condensed, linker removed
Shown is part of a subset that was picked to be rich in the strongest signals.
Output: class label from glycan array binding signal (z-score). Mapping: LOW (below -0.05), MID (-0.05 to below 0.7), HIGH (0.7 or more)

Hi, small favor: classify LcH (Lens culinaris), P02870 (protein) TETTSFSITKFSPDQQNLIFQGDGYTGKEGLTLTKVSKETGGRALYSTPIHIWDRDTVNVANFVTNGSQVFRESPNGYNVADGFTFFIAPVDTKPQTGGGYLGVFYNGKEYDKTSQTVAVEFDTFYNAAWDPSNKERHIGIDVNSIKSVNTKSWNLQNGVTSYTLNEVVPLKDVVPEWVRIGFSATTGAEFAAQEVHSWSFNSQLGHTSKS by its glycan array binding signal (z-score) when you get a moment. MID

Would you kindly repeat that for Gal 2 (Homo sapiens), P05162 (protein) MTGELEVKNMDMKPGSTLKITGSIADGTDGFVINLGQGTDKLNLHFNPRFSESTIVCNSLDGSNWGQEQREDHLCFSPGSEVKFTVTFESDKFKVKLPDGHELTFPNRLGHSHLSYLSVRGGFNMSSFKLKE ? LOW

Would you kindly repeat that for SLLPI (Homo sapiens), Q8IXA5 (protein) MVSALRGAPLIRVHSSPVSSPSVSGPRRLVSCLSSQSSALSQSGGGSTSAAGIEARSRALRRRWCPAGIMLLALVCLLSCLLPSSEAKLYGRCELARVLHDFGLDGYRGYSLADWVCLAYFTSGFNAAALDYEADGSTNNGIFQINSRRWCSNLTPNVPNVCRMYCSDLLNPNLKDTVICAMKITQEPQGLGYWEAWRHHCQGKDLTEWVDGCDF ? MID

Would you kindly repeat that for HHA (Hippeastrum hybrid) (protein) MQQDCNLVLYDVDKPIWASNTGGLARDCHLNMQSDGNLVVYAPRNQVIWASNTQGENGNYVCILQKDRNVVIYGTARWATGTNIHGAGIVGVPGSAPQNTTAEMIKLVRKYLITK ? LOW

Would you kindly repeat that for Dectin-1 CTLD (Mus musculus), Q6QLQ4 (protein) MKYHSHIENLDEDGYTQLDFSTQDIHKRPRGSEKGSRAPSSPWRPIAVGLGILCFVVVVVAAVLGALAFWRHNSGRNPEEKDNFLSRNKENHKPTESSLDEKVAPSKASQTTGGFSQSCLPNWIMHGKSCYLFSFSGNSWYGSKRHCSQLGAHLLKIDNSKEFEFIESQTSSHRINAFWIGLSRNQSEGPWFWEDGSAFFPNSFQVRNTVPQESLLHNCVWIHGSEVYNQICNTSSYSICEKEL ? MID

The reported measurements were obtained from the supplement of paper PMC8728848.
